Test system: UACC-257 melanoma
Assay: NCI-60 one-dose screen, 48 h (100 = growth as untreated, 0 = no growth, -100 = all killed)
Details: 10 µM
About 83,000 compounds went through this panel and 20% of them were active in at least one assay; those are over-represented in the sample as a whole.
quantity: growth (%)
Number only, in %; omit the unit.

> print(dat)
                                   compound  readout.number
1  COc1ccc(Cn2cc(COc3cc(/C=C/C(=O)c4cc(OC)c(OC)c(OC)c4)ccc3OC)nn2)cc1            96.1
2   COc1ccc(OC)c(C(=O)c2oc3ccc(Br)cc3c2N)c1            49.9
3  COc1cccc(C2CC(=O)Nc3c2c(C)nn3-c2nc3ccccc3[nH]2)c1OC (stereo unspecified)            79.1

// assay UACC-257 melanoma, entry COc1ccc(S(=O)(=O)N2CCN(c3cc4c(cc3F)c(=O)c(C(=O)O)cn4C3CC3)CC2)c(OC)c1 , growth value = 100

// assay UACC-257 melanoma, entry O=C(O)c1ccc(-n2c(=O)c3ccccc3c3ccccc3c2=O)cc1 , growth value = 102

// assay UACC-257 melanoma, entry COc1ccc(/C=C/C(=O)c2ccc(B(O)O)cc2)cc1O , growth value = 94.3
